Origin of the recorded values: the supplement of paper PMC10567573

B1: TBX6 (parent)
chain: AFLELPHGSGGSGYPAAPPAVPFA

Variants of: B1
Assay: protein stability index of a GFP-peptide fusion (GPS, HEK-293T) (PSI 1-6); higher = more stable;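 also: lentivirally expressed fusions sorted by FACS into six bins by GFP to DsRed ratio, PSI derived from sequencing read proportions per bin multiplied by bin number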
Conditions: c terminus: a fixed tail appended
Listed variants paired with reported protein stability index
Reply with just the number.

> print(dat)
   variant.notation         measurement.name  assay.value
1              G13Y  protein stability index         1.66

What the record says about G13S : protein stability index is 2.44

// sample A17M , its protein stability index was 2.17

The variant listed as P19Y shows protein stability index equal to 1.48

Recorded result, Y14N , protein stability index: 3.54

Measured protein stability index, V21F : 1.97

Query A24Q yields protein stability index of 2.71
